# SYSTEM UNDER TEST: Glutaminyl cyclase (QC) (Homo sapiens (Human), UniProt Q16769)
# Sequence (Q16769 29-361): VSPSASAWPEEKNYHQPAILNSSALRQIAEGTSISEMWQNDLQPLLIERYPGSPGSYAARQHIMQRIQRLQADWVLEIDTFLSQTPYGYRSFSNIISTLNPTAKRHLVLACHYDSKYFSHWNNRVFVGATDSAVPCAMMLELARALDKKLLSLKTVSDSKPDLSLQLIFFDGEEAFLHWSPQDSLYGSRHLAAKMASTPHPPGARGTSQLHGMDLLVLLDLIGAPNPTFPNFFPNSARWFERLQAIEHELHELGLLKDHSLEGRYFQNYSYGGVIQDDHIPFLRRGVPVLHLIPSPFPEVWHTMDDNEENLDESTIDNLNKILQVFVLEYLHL
# METHOD: Glutaminyl cyclase assay, determination of IC50 values and calculation of Ki values (H-Gln-AMC substrate, pGAP auxiliary enzyme; pH 8.0 or pH 6.0)
# Assay type: biochemical
# STATED CONDITIONS: pH 6, read-out: hQC Ki [μM] pH6
EXPERIMENTAL ENDPOINT: Ki (µM)

P: COc1ccc(-c2c(F)cccc2NCc2ccc3[nH]cnc3c2)cc1OC [O23]
Q: COc1ccc(-c2ncccc2Nc2ccc(-c3nncn3C)cc2)cc1 [D4]
R: O=S(=O)(NCc1ccc2[nH]cnc2c1)c1ccc(F)cc1 [P1]
Asked: Kindly provide a descending ordering of the above molecules based on their Ki. List labels; respect the requested ordering.
Given back: R, Q, P

---

# SYSTEM UNDER TEST: Glutaminyl cyclase (QC) (Homo sapiens (Human), UniProt Q16769)
# METHOD: Glutaminyl cyclase assay, determination of IC50 values and calculation of Ki values (H-Gln-AMC substrate, pGAP auxiliary enzyme; pH 8.0 or pH 6.0)
# Assay type: biochemical
# STATED CONDITIONS: pH 6, read-out: hQC Ki [μM] pH6
# Procedure: 10 mM compound stock solutions were prepared in DMSO. For IC50 determination compound stocks were serially diluted (1:3) in DMSO. All measurements were performed with an EnSpire Perkin Elmer multimode reader using glutaminyl-7-amino-4-methylcoumarin (H-Gin-AMC) as substrate and recombinant pyroglutamyl aminopeptidase (pGAP) as auxiliary enzyme. […] Release of flourogenic AMC were recorded at excitation/emission wavelengths of 380/460 nm. […]
EXPERIMENTAL ENDPOINT: Ki (µM)

Examples with their reported Ki follow.
COc1ccc(-c2ccccc2NCCCc2nncn2C)cc1OC = 0.13
COc1ccc(-c2ncccc2NCc2ccc3[nH]cnc3c2)cc1 = 9.52

I: Nc1nnc(-c2ccc(Nc3ccccc3-c3ccc(Oc4ccccc4)cc3)cc2)s1
II: Cn1cnnc1-c1ccc(Nc2ccccc2-c2ccc(F)cc2)cc1
Asked: Identify the entry with the larger Ki. Options: I and II Response format: the label of the selected entry.
Given back: I

A: CS(=O)(=NCCCc1nnc(N)s1)c1ccc(F)cc1 (stereo not shown)
B: Fc1ccc(-c2cccnc2NCc2ccc3[nH]cnc3c2)cc1
C: COc1ccc(-c2ccccc2Nc2ccc(-c3nncn3C)cc2)cc1
Asked: Please put the entries in order of rising Ki. List labels; respect the requested ordering.
Given back: C, A, B
(C: 0.99 µM, A: 11.4 µM, B: 58.8 µM)

A: Fc1ccc(-c2ncccc2NCc2ccc3[nH]cnc3c2)cc1
B: Nc1nnc(C2CCN(c3ccccc3-c3ccc(F)cc3)CC2)s1
C: Fc1ccc(-c2ccccc2NCc2ccc3[nH]cnc3c2)cc1
Asked: Arrange these molecules by their Ki, starting with the largest number. List labels; respect the requested ordering.
Given back: A, C, B

---

# SYSTEM UNDER TEST: Glutaminyl cyclase (QC) (Homo sapiens (Human), UniProt Q16769)
# METHOD: Glutaminyl cyclase assay, determination of IC50 values and calculation of Ki values (H-Gln-AMC substrate, pGAP auxiliary enzyme; pH 8.0 or pH 6.0)
# Assay type: biochemical
# STATED CONDITIONS: pH 6, read-out: hQC Ki [μM] pH6
EXPERIMENTAL ENDPOINT: Ki (µM)

Examples with their reported Ki follow.
COc1ccc(-c2cccnc2NCc2ccc3[nH]cnc3c2)cc1 = 2.74
Nc1ncc(C2CCN(S(=O)(=O)c3ccc(F)cc3)CC2)s1 = 1.32
Nc1ncc(-c2ccc(NS(=O)(=O)c3ccc(F)cc3)cc2)s1 = 2.93
Nc1nnc(CCCNS(=O)(=O)c2ccc(F)cc2)s1 [E2] = 18.1
Cn1cnnc1-c1ccc(Nc2cccnc2-c2ccc(F)cc2)cc1 = 2.69
CCCOc1ccc(-c2ccccc2Nc2ccc(-c3nnc(N)s3)cc2)cc1 = 2.15

a: COc1ccc(-c2cccnc2Nc2ccc(-c3nnc(N)s3)cc2)cc1
b: c1ccc(-c2ccc(OC3CCCCC3)cc2)c(NCc2ccc3[nH]cnc3c2)c1
c: COc1ccc(-c2cnccc2NCc2ccc3[nH]cnc3c2)cc1
d: COc1ccc(-c2cccnc2NCc2ccc3[nH]cnc3c2)cc1OC
Asked: Arrange these compounds by their Ki, starting with the largest number. List labels; respect the requested ordering.
Given back: c, a, b, d

---

# SYSTEM UNDER TEST: Glutaminyl cyclase (QC) (Homo sapiens (Human))
# METHOD: Glutaminyl cyclase assay, determination of IC50 values and calculation of Ki values (H-Gln-AMC substrate, pGAP auxiliary enzyme; pH 8.0 or pH 6.0)
# Type: biochemical
# STATED CONDITIONS: pH 8, read-out: hQC Ki [μM] pH8
# Description: 10 mM compound stock solutions were prepared in DMSO. For IC50 determination compound stocks were serially diluted (1:3) in DMSO. All measurements were performed with an EnSpire Perkin Elmer multimode reader using glutaminyl-7-amino-4-methylcoumarin (H-Gin-AMC) as substrate and recombinant pyroglutamyl aminopeptidase (pGAP) as auxiliary enzyme. […] Release of flourogenic AMC were recorded at excitation/emission wavelengths of 380/460 nm. […]
EXPERIMENTAL ENDPOINT: Ki (µM)

Examples with their reported Ki follow.
Fc1ccc(-c2nccnc2NCc2ccc3[nH]cnc3c2)cc1 [O15] = 11.7
COc1ccc(-c2c(F)cccc2NCc2ccc3[nH]cnc3c2)cc1OC [O23] = 0.1
COc1ccc(-c2ncccc2Nc2ccc(-c3nncn3C)cc2)cc1 [D4] = 3.37

a: COc1ccc(-c2cnccc2Nc2ccc(-c3nncn3C)cc2)cc1OC [D7]
b: COc1ccc(-c2ccccc2NCc2ccc3[nH]cnc3c2)cc1OC [Comp 1254]
Asked: // compare: a vs b , metric Ki, want the smaller Response format: the label of the selected entry.
Given back: b

---

# SYSTEM UNDER TEST: Glutaminyl cyclase (QC) (Homo sapiens (Human), UniProt Q16769)
# METHOD: Glutaminyl cyclase assay, determination of IC50 values and calculation of Ki values (H-Gln-AMC substrate, pGAP auxiliary enzyme; pH 8.0 or pH 6.0)
# Type: biochemical
# STATED CONDITIONS: pH 6, read-out: hQC Ki [μM] pH6
EXPERIMENTAL ENDPOINT: Ki (µM)

Examples with their reported Ki follow.
Nc1nnc(-c2ccc(Nc3ncccc3-c3ccc(F)cc3)cc2)s1 [Comp 521] = 2.69
COc1ccc(-c2ccccc2Nc2ccc(-c3nnc(N)s3)cc2)cc1OC [Comp 561] = 0.42

A: COc1ccc(-c2ccccc2NCc2ccc3[nH]cnc3c2)cc1 [O3]
B: Fc1ccc(-c2nccnc2NCc2ccc3[nH]cnc3c2)cc1 [O15]
C: Nc1nnc(SCCNS(=O)(=O)c2ccc(F)cc2)s1 [E3]
D: Nc1nnc(SCCNc2ccccc2-c2ccc(F)cc2)s1 [Comp 94]
Asked: Arrange these molecules by their Ki, starting with the largest number. List labels; respect the requested ordering.
Given back: C, B, D, A
(C: 19.9 µM, B: 10.5 µM, D: 2.97 µM, A: 1.44 µM)

---

# SYSTEM UNDER TEST: Glutaminyl cyclase (QC) (Homo sapiens (Human), UniProt Q16769)
# METHOD: Glutaminyl cyclase assay, determination of IC50 values and calculation of Ki values (H-Gln-AMC substrate, pGAP auxiliary enzyme; pH 8.0 or pH 6.0)
# Type: biochemical
# STATED CONDITIONS: pH 8, read-out: hQC Ki [μM] pH8
EXPERIMENTAL ENDPOINT: Ki (µM)

Examples with their reported Ki follow.
COc1ccc(-c2ccccc2Nc2ccc(-c3nnc(N)s3)cc2)cc1OC = 1.09
COc1ccc(-c2ccccc2Nc2ccc(-c3nnc(N)s3)cc2)cc1 = 1.48
CS(=O)(=NCCCc1nnc(N)s1)c1ccc(F)cc1 (stereo not drawn) = 11.7
O=S(=O)(NCc1ccc2[nH]cnc2c1)c1ccc(F)cc1 [P1] = 24.7
COc1ccc(-c2ccccc2NCCCc2nncn2C)cc1OC = 0.26

P: Nc1nnc(C2CCN(S(=O)(=O)c3ccc(F)cc3)CC2)s1
Q: Nc1nnc(C2CCN(c3ccccc3-c3ccc(F)cc3)CC2)s1
Asked: Identify the entry with the larger Ki. Options: P and Q Response format: the label of the selected entry.
Given back: P

I: COc1ccc(-c2ncccc2NCc2ccc3[nH]cnc3c2)cc1
II: COc1ccc(-c2ccccc2Nc2ccc(-c3nncn3C)cc2)cc1OC
III: Fc1ccc(-c2cccnc2NCc2ccc3[nH]cnc3c2)cc1
IV: Cn1cnnc1-c1ccc(Nc2cccnc2-c2ccc(F)cc2)cc1
V: COc1ccc(-c2cnccc2Nc2ccc(-c3nnc(N)s3)cc2)cc1OC
Asked: Arrange these compounds by their Ki, starting with the largest number. List labels; respect the requested ordering.
Given back: III, V, IV, I, II
(III: 12.3 µM, V: 7.46 µM, IV: 5.05 µM, I: 2.96 µM, II: 1.48 µM)
